tested on: UO-31; assay: NCI tumour cell line growth inhibition, 48 h
Calls of active or inactive are those of the source. Rule as the data show it: active = GI50 up to about 1.1 µM and inactive = higher. *1 amine or outer side, *2 acyl side, *3 side chain or, on linkers, in order; H or OH if unused. Where a SMILES comes first, the peptide text is derived from it. Bridges are numbered along the chain shown (N, C = ends). [ ]: non-standard residue; d: D form. X36 = CC[C@H](C)[C@@H](N[*:1])[C@@H](O)CC(=O)O[C@H](C(=O)[C@H](C)C(=O)[*:2])C(C)C; NMeY = CN[C@@H](Cc1ccc(O)cc1)C(=O)O
API: response.call in Y (active), N (inactive)

See these solved cases before continuing.
compound: Nc1cccc2cc(Cl)cnc12
target.system: UO-31
class.label: N
//
compound: COC(=O)[C@H]1[C@H](OC(=O)[C@@H](OC)c2ccccc2)ON2CC[C@@H](OC(=O)c3ccccc3)[C@H]12
target.system: UO-31
class.label: N
//
compound: CC1CCC(C(=O)O)(C(Br)C(=O)O)CC1 (centres undefined)
target.system: UO-31
class.label: N

Record request — test call for O=C1OC2CC=CC1C2 (centres undefined) N

Let us now turn to COC1CC(OS(=O)(=O)c2ccc(C)cc2)C(OS(=O)(=O)c2ccc(C)cc2)C(COS(=O)(=O)c2ccc(C)cc2)O1 (centres undefined) N

Let us now turn to Cc1ccc(N2C(=O)CS/C2=C(\C#N)c2nc3ccccc3[nH]2)cc1 N

Let us now turn to CC[C@]12C=CCN3CC[C@@]4(c5ccc(OC)cc5N(C)[C@H]4[C@@](O)(C(=O)OC)[C@@H]1OC(C)=O)[C@@H]32 N

Let us now turn to COc1cc2c(cc1O)NC(=O)[C@@H]1C[C@@H](O)CN1C2=O N

Let us now turn to CCC(=O)c1cn(C)c(=O)c2ccccc12 N

Let us now turn to CC1(C)COC(c2cccc(C3=NC(C)(C)CO3)c2)=N1 N

Let us now turn to COc1ccccc1/C=C/c1c(N)ncnc1Nc1cccc(Cl)c1 N

Let us now turn to CC[C@H](C)[C@H]1NC(=O)[C@@H](N)[C@@H](C)OC(=O)[C@H](Cc2ccc(OC)cc2)N(C)C(=O)[C@@H]2CCCN2C(=O)[C@H](CC(C)C)NC(=O)[C@@H](C)C(=O)[C@H](C(C)C)OC(=O)C[C@@H]1O (H-T[X36]LP[NMeY](Me); ester 1-C) N

Let us now turn to COc1ccc2c(c1)[C@@]13CCN4CC5=CCO[C@H]6CC(=O)N2[C@H]1[C@H]6[C@H]5C[C@H]43 N

Let us now turn to CN1C(=O)N/C(=C\c2ccc(S(=O)(=O)NN)cc2)C1=O N

Let us now turn to C#C[C@]1(O)[C@@H](CO)O[C@@H](n2ccc(N)nc2=O)[C@@H]1O Y

Let us now turn to C/C(=N\Nc1nc2ccccc2s1)c1cc(C)ncn1 Y

Every entry's value here was drawn from ChEMBL document CHEMBL1201862.
